Measured %Inh, listed per entry for reference.
system: TNK2; details: concentration: 1 μM, replicates: in singlicate; n = 1;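 note: KINOMEscan kinase panel screen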
Quantity measured: %Inh (%)

In [3]: df
Out[3]:
                                    molecule  value_observed
 0  O=C(NCCNc1ccnc(Nc2ccc(F)cc2)n1)Nc1ccc2c(c1)OCO2               9
 1                Nc1ncnc2c1ncn2-c1cccc(F)c1              15
 2   O=C(Nc1n[nH]c2cc(-c3ccccc3F)ccc12)C1CC1               0
 3  O=C(NCc1cccs1)c1cc(C(=O)c2c(Cl)cccc2Cl)c[nH]1               0
 4  Cc1cccc(-c2nc(Nc3ccc4c(cnn4C)c3)c3ccccc3n2)n1               0
 5    Fc1cccc(CSc2nnc(-c3ccc4c(c3)CCO4)o2)c1               8
 6  FC(F)(F)c1ccc(-c2ncn(CCCN3CCOCC3)c2-c2ccncc2)cc1               0
 7  CCC(=O)c1c(-c2ccccc2)c2cc(Cl)ccc2c(=O)n1Cc1ccc(C(=O)O)cc1               0
 8  CCS(=O)(=O)c1ccc(OC)c(Nc2ncc(-c3ccc(F)cc3)o2)c1.Cl              12
 9  O=C(Nc1ccc2c(c1)OCO2)NC1CCN(c2ccnc(NCc3ccc(F)cc3)n2)CC1               7
10  Nc1nccc2scc(-c3ccc4c(c3)CCN4C(=O)Cc3ccccc3)c12               0
11  Cc1nc(N(C)[C@H]2CN(C(=O)CC#N)CC[C@H]2C)c2cc[nH]c2n1              11
12  CCC(=O)c1c(-c2ccccc2)c2cc(Cl)ccc2c(=O)n1Cc1cc(C(=O)NC2CC2)n(C)n1               0
13  COC(=O)c1c(-c2ccccc2)c2cc(Br)ccc2c(=O)n1Cc1ccc(NC(=O)CCC(=O)O)cc1               0
14    CN(C)c1cc(-c2ccc3c(N)n[nH]c3c2)nc(N)n1               1
15  Cl.c1ccc(Cn2cnc3cc(Nc4ncnc5ccccc45)ccc32)cc1              15
16  OCCCNc1nccc(-c2c(-c3cccc(C(F)(F)F)c3)nn3cc(C(F)(F)F)ccc23)n1               0
17  COc1cc(Nc2nccc(N3CCC(NC(=O)C4COc5ccccc5O4)C3)n2)cc(OC)c1OC (centres unmarked)               6
18  COc1ccc(-c2coc3ccc(-c4nnc(SCc5cccc(C#N)c5)o4)cc23)cc1               0
19  COc1cc2ncn(-c3cc(OCc4ccncc4Br)c(C(N)=O)s3)c2cc1OC               0

====

system: MEK2; construct: gene MAP2K2; conditions: concentration: 1 μM, replicates: in singlicate; n = 1
Quantity measured: %Inh (%)

                                    molecule  value_observed
 0  COC(=O)c1c(-c2ccccc2)c2cc(C)ccc2c(=O)n1Cc1ccccc1               0
 1  O=C(Nc1n[nH]c2nc(-c3ccccc3)c(Br)cc12)C1CC1               0
 2  COC(=O)c1c(-c2ccccc2)c2cc(Br)ccc2c(=O)n1Cc1ccc(NC(=O)CCC(=O)O)cc1               3
 3           Nc1nc(N)c2nc(-c3ccccc3)[nH]c2n1              13
 4  COc1cc2ncn(-c3cc(OCc4ccncc4Br)c(C(N)=O)s3)c2cc1OC              13
 5  Cc1ccc(-c2ccc3c(ccc4sc5c(c43)NC[C@@H](C)N=C5N(C)C)n2)cn1               0
 6  Cc1nn2c(=O)cc(N3CCOCC3)nc2n1Cc1cccc(Cl)c1Cl               0
 7  CCCC(=O)Nc1n[nH]c2ncc(-c3cccc4ccccc34)cc12               8
 8  CCS(=O)(=O)c1ccc(OC)c(Nc2ncc(-c3ccc(F)cc3)o2)c1.Cl               0
 9  COc1ccc(-c2cc3c(C)nc(N)nc3n([C@H]3CC[C@H](O)CC3)c2=O)cn1               0
10  COc1cc2ncn(-c3cc(OCc4ccc(S(C)(=O)=O)cc4)c(C(N)=O)s3)c2cc1OC              25
11  Cc1nnc(-c2ccc3ncn(-c4ccc(S(C)=O)cc4)c3c2)o1 (stereo not shown)              22
12  O=C(NCCNc1ccnc(Nc2ccc(F)cc2)n1)Nc1ccc2c(c1)OCO2              19
13   Nc1n[nH]c2nnc(-c3ccccc3)c(-c3ccccc3)c12               0
14  CN1C(=O)C(Nc2cc(Cl)c(O)c(Cl)c2)=C(c2ccc(Cl)cc2)C1=O               0
15  Cn1c(=O)c(F)c(Nc2ccc(I)cc2F)c2c(=O)n(OC[C@H](O)CO)cnc21            99.1
16  Cc1nnc(-c2ccc(C)c(-c3ccc(C(=O)O)cc3)c2)o1               0
17    CN(C)c1cc(-c2ccc3c(N)n[nH]c3c2)nc(N)n1               0
18  COc1cc2ncn(-c3cc(OCc4ccncc4)c(C(N)=O)s3)c2cc1OC               4
19  Cc1cccc(-c2cc(-c3c[nH]nc3-c3ccccn3)ccn2)c1               0
20  COc1cc(OC)cc(-c2cc3cnc(N)nc3nc2NC(=O)NC(C)(C)C)c1               0
21             Nc1ncnc2c1ncn2-c1cccc2ccccc12              24
22    Fc1cccc(CSc2nnc(-c3ccc4c(c3)CCO4)o2)c1               5
23  Cl.c1ccc(Cn2cnc3cc(Nc4ncnc5ccccc45)ccc32)cc1               0
24  COc1cc2nccc(Nc3ccc(OCc4ccc(NC(C)=O)cc4)cc3)c2cc1OC.Cl               0
25  COc1cc2ncn(-c3cc(OCCCc4ccccc4)c(C(N)=O)s3)c2cc1OC               0
26  O=C(Nc1ccc2c(c1)OCO2)NC1CCN(c2ccnc(NCc3ccc(F)cc3)n2)CC1               0
27  CCC(=O)c1c(-c2ccccc2)c2cc(Cl)ccc2c(=O)n1Cc1ccc(C(=O)O)cc1               3
28  FC(F)(F)c1ccc(-c2ncn(CCCN3CCOCC3)c2-c2ccncc2)cc1               0
29  C[C@@H]1CC[C@H](C(=O)NC2CCCCC2)CN1c1cc(-c2ccc3c(N)n[nH]c3c2)nc(N)n1               0
30  Cl.NS(=O)(=O)c1cccc(Nc2cc(-c3ccc(F)cc3)n[nH]2)c1              45
31               Nc1ncnc2c1ncn2-c1ccc(Cl)cc1               0
32  OCCCNc1nccc(-c2c(-c3cccc(C(F)(F)F)c3)nn3cc(C(F)(F)F)ccc23)n1               0
33  COc1ccc(Nc2nccc(N3CCC(NS(=O)(=O)c4ccc(NC(C)=O)cc4)C3)n2)cc1 (stereo not shown)              10
34  O=C(Nc1n[nH]c2nc(-c3ccccc3)c(Cl)cc12)C1CC1               0
35  COc1cc(Nc2ccnc3ccc(C(F)(F)F)cc23)cc(OC)c1OC               0
36              Nc1n[nH]c2ncc(-c3ccccc3)cc12               1

Hello, the source for this data is paper PMC5540273, in case you need it.
